Test method notes: yeast display, Sf9 membrane polyspecificity reagent, FACS + sequencing; frameworks hold sequencing errors
Measure name: polyreactivity (PSR sort gate)

Example sequences with recorded polyreactivity (PSR sort gate):
QVQLVESGGGLDQAGGSLRLSWAASGSTFTINVMGWYRQAPGKERELVAAINGGGRTNYADSVKGRFTISRDNAKNTVYLQMNSLKPEDTAVYYCAADGLSNVRQMDFWGQGTQVTVSS :: low polyreactivity
QVQLVESGGGLVHAGGSLRLSCAASGSIFSWYDMGWYRQAPGKERELVADISSGGSTNYADSVKGRFTISRDNAKNTVYLQMNSMKPEDTAVYYCNARLGYLYDYWGQGTQVTVSS :: low polyreactivity
QVQLVESGGGIVQAGGSLRLSCAASGIIFRYYAMGWYRQAPGNERELVAVITGRGGGTYYADSVKGRFTISRDNAKNTVYLQMNSLKPEDTAVYYCAKDFTGHYPKGFDYWGQGTQLTVSS :: low polyreactivity
QVQLVESGGGLVQAGGSLRLSCAASGRTFAYNDRGWYRQATGKERELVAAISWSDGTTYYADSVKGRFTISRDNAKNTVYLQMYSLKPEDTAVYDCAAESYPAVVASYVSEFDYWGQGTQVPVSS :: low polyreactivity
QVQLVESGGGLVQAGGSLRLSCAASGFTFRYYAMGWYRQAPGKERELVAGISWSGSRTYYADSVKGRFTISRDNAKNTVYLQMNSLKPEDTAVYYCAKVNSYGPVPDRYDYWGQGTQVTVSS :: high polyreactivity
QVQLVESGGGLVQAGGSLRLSCAASGSTFRYAMGWYRQAPGKERELVATISSGGSTNYADSVKGRFTISRDNAKNTVYLQMNSLKPEDTAVYYCAADPYGGDNDKGDYWGQGTQVTVSS :: low polyreactivity

Value lookup for polyreactivity (PSR sort gate); key = QVQLVESGGGLVQAGGSLRLRCAASGSIFNSYAMGWSRQAPGKERELVAAISIRGTRTYYADSVKGRFTISRDNAKNTVYLQMNSLKPEDTAVYYCAADASYTEGMDYWGQGTQVTVSS
high polyreactivity

Value lookup for polyreactivity (PSR sort gate); key = QVQLVESGGGLVQAGGSLRLSCAASGSIFSANAMGWYRQAPGKERELVAAISRSGGRTYYADSVKGRFTISRDNAKNTVYLQMNSLKPEDTAVYYCAADKSRYSVGYDYWGQGTQVTVSS
high polyreactivity

Value lookup for polyreactivity (PSR sort gate); key = QVQLGESGGGLVQAGGSLRLRCAASGRIFNGYTMGWYRQAPGKERELVAAISRGGSTYYADSVKGRLTISRDNAKNTVYLLMNSLKPEDTAVYYCAASHRFGYEYWGHGTQVTVSS
high polyreactivity

Value lookup for polyreactivity (PSR sort gate); key = QVQLVESGGGLVQAGGSLRLSCAASGFISKYYAMGWYRQAPGKERELVASISRDGSTSYADSVKGRFTISRDNAKNTVYLQMNSLKPEDTAVYYCAAPSYRTRYYYWGQGTQVTVSS
high polyreactivity

Value lookup for polyreactivity (PSR sort gate); key = QVQLVESGGGLVQAGGSLRLSCAASGFIFSRNAMGWYRQAPGKERELVAAISAGGGSTYYADSVKGRFTISLDNAKYTVYLQMNSLKPEDSAVYSCAAYFRSQFGYWGQGTEVTVSS
high polyreactivity
